biological target: mTOR (Homo sapiens, UniProt P42345); construct: purchased Invitrogen PV4754; test: mTOR assay (LanthaScreen kinase activity assay); format: biochemical; settings: read-out: mTOR activity, IC50 (semi-quantitative class)
Sequence (P42345 1360-2549 limits assumed): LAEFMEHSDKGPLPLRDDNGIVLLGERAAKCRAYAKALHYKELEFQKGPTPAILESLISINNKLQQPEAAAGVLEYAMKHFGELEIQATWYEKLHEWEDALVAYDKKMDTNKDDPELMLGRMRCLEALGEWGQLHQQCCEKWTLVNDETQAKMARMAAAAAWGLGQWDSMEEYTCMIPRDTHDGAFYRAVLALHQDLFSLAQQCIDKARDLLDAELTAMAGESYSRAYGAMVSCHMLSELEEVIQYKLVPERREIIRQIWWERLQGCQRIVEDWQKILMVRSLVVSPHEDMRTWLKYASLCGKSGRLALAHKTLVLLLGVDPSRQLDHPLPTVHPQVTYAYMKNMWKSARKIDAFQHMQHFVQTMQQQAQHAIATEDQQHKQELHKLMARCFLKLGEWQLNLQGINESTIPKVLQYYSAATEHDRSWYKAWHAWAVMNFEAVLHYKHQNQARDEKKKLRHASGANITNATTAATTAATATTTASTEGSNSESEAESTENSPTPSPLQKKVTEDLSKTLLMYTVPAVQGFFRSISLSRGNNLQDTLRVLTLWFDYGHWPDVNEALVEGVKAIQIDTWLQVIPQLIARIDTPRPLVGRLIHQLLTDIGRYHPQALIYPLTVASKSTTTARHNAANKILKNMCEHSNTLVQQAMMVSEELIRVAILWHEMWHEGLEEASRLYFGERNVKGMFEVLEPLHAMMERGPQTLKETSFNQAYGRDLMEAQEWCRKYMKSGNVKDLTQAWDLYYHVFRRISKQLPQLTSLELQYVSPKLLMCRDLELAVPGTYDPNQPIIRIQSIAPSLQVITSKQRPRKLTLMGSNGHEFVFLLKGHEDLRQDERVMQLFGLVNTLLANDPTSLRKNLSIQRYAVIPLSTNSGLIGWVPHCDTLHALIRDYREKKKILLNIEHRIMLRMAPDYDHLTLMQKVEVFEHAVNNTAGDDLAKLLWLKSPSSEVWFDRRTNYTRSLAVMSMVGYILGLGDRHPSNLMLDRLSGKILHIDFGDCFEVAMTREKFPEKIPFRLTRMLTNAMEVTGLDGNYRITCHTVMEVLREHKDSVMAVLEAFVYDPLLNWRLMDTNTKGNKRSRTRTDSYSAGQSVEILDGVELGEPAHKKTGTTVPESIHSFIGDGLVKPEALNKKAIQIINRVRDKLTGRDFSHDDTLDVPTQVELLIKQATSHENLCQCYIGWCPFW
pIC50: −log10 of the molar value.
I'd appreciate it if you could supply pIC50 values for the items below.

Value of measured pIC50 for the entry COc1ncc2cc1NS(=O)(=O)c1cccc(c1)C(=O)NCc1cccc(c1)-c1cnn3ccc-2nc13 [compound 16] : > 7.00

Value of measured pIC50 for the entry COc1ncc2cc1NS(=O)(=O)c1cccc(c1)C(=O)NCCn1cc(cn1)-c1nc(C(C)C)nc3c1SC2=C3 [compound 61] : < 6.00

Value of measured pIC50 for the entry COc1ncc2cc1NS(=O)(=O)c1cccc(c1)C(=O)NCc1cncc(c1)-c1ncnc3ccc-2cc13 [compound 41] : > 7.00

Value of measured pIC50 for the entry COc1ncc2cc1NS(=O)(=O)c1cccc(c1)C(=O)NCc1cc(ccc1F)-c1ncnc3c1SC2=C3 [compound 65] : < 6.00

Value of measured pIC50 for the entry COc1ncc2cc1NS(=O)(=O)c1cccc(c1)C(=O)NCc1cncc(c1)-c1cnc3sc-2nn13 [compound 8] : < 6.00

Value of measured pIC50 for the entry COc1ncc2cc1NS(=O)(=O)c1cccc(c1)C(=O)N1CCc3ccc(cc3C1)-c1ccnc3ccc-2cc13 [compound 39] : > 7.00

Value of measured pIC50 for the entry COc1ncc2cc1NS(=O)(=O)c1cccc(c1)C(=O)NCC1=CC=C(S1)c1ccnc3c1SC2=C3 [compound 80] : < 6.00

Value of measured pIC50 for the entry COc1ncc2cc1NS(=O)(=O)c1cccc(c1)C(=O)NC[C@H]1CCCN(C1)c1ncnc3c1SC2=C3 [compound 83] : < 6.00

Value of measured pIC50 for the entry COc1ncc2cc1NS(=O)(=O)c1cc(cc(C(F)(F)F)c1)C(=O)NCc1cncc(c1)-c1ncnc3c1SC2=C3 [compound 53] : < 6.00

Value of measured pIC50 for the entry COc1ncc2cc1NS(=O)(=O)c1cccc(c1)C(=O)NCc1cc(ccn1)-c1ccnc3ccc-2cc13 [compound 15] : 6.00 to 7.00

Value of measured pIC50 for the entry O=C1NCc2cncc(c2)-c2ncnc3c2SC(=C3)c2cnc(O)c(c2)NS(=O)(=O)c2cccc1c2 [compound 45] : < 6.00

Value of measured pIC50 for the entry O=C1NCc2cncc(c2)-c2ccnc3ccc(cc23)-c2cnc(O)c(c2)NS(=O)(=O)c2cccc1c2 [compound 2] : < 6.00

----------
target: PI3K (p110α/p85α) (Homo sapiens, UniProt P42336); construct: purchased Carna Biosciences 07CBS-0402A; assay: PI3K activity assay (ADP Hunter Plus); format: biochemical; details: read-out: PI3K alpha actual IC50 (in parentheses)
Sequence (P42336 whole entry): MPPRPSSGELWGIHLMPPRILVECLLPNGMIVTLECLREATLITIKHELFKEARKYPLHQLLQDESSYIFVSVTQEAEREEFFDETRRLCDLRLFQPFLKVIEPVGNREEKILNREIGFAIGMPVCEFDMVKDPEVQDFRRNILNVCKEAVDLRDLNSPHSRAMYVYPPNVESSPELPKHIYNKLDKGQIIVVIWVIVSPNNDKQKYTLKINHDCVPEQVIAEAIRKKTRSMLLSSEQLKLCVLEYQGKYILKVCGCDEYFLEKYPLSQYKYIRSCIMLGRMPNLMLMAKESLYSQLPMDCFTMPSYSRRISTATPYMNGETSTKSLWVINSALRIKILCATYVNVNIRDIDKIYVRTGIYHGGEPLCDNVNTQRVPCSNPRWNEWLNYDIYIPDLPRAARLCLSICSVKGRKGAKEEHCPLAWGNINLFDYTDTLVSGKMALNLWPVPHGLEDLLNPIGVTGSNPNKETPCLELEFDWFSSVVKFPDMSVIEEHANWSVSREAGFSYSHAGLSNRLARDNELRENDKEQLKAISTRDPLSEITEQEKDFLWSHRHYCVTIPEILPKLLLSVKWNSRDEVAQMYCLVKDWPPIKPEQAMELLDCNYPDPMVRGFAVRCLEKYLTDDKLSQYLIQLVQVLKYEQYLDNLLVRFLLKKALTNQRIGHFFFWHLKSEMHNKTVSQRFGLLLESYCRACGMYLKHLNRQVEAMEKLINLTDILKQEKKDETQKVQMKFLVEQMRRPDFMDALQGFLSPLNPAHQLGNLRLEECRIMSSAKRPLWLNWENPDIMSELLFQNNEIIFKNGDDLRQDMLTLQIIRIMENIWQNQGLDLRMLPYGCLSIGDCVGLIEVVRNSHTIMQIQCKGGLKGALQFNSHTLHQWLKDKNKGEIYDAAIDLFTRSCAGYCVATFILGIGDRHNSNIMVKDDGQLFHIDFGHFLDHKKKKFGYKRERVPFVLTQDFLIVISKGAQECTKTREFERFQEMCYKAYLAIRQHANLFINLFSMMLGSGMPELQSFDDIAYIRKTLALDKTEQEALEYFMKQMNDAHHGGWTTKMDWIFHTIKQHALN
Sequence (P27986 whole entry partner): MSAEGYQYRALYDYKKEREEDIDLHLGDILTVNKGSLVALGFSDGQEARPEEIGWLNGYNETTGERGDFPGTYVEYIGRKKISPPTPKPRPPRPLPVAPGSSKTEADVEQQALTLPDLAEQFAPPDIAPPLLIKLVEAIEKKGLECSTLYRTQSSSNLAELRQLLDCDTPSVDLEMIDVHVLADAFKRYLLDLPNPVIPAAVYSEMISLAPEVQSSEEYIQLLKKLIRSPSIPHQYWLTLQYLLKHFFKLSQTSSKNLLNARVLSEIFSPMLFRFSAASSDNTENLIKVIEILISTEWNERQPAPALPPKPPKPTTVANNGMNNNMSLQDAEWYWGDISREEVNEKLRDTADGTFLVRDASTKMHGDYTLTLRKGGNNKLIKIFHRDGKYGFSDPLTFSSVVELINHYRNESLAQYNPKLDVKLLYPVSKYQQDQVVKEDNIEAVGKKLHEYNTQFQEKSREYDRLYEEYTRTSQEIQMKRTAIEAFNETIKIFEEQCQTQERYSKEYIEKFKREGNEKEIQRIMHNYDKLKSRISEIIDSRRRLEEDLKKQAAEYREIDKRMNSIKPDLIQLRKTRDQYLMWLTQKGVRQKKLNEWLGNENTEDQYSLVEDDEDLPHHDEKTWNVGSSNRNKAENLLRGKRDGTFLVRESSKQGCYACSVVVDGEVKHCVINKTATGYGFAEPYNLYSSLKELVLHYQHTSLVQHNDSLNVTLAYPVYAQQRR
I'd appreciate it if you could supply pIC50 values for the items below.
pIC50 here is simply -log10 of the concentration when that concentration is written in mol/L.

Value of measured pIC50 for the entry `COc1ncc2cc1NS(=O)(=O)c1cc(c(F)cc1F)C(=O)NCc1cccc(c1)-c1ccnc3ccc-2cc13` : 8.22

Value of measured pIC50 for the entry `COc1ncc2cc1NS(=O)(=O)c1cccc(c1)C(=O)NCc1cncc(c1)-c1cnc3sc-2nn13` : 8.15

Value of measured pIC50 for the entry `COc1ncc2cc1NS(=O)(=O)c1cccc(c1)C(=O)NCc1cncc(c1)-c1cnc3ccc-2cn13` : 7.96
